- Measured target: mouse IDO1 (Mus musculus)
- Construct: The murine PANC02 pancreatic ductal adenocarcinoma cell line was routinely maintained in DMEM media; endogenous in cells
- Sequence (P28776 whole entry): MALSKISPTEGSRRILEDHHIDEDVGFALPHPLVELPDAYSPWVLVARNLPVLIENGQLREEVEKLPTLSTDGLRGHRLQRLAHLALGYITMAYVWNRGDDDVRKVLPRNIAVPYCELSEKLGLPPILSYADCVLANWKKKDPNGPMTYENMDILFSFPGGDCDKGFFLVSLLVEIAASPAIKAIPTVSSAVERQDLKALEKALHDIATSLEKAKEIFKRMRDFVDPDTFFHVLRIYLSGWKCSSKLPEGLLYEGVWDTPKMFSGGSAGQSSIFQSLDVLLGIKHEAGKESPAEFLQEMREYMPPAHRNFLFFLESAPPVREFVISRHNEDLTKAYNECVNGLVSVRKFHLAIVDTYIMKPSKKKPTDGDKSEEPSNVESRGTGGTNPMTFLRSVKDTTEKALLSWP
- Measurement notes: Mouse IDO1 cell-based assay (PANC02 cells, mouse IFNgamma-induced, N-formylkynurenine/L-tryptophan by RFMS)
- Stated conditions: 30 ng/mL mouse IFNgamma, 48 hours
Metric: IC50

Consider the following illustrative entries.
Entry under test: CC[C@@H](NC(=O)c1ccc(Cl)cc1)[C@H]1[C@@H]2C[C@@H](n3cnc4ccc(F)cc43)C[C@@H]21 . Its IC50 was < 500 nM

Entry under test: O=C(NC(CO)[C@H]1[C@@H]2C[C@@H](n3cc(C4CC4)nn3)C[C@@H]21)c1ccc(Cl)cc1 (some centres unmarked) . Its IC50 was > 5000 nM

Entry under test: CCC(NC(=O)c1ccc(Cl)cc1)[C@H]1[C@@H]2C[C@@H](NC(=O)c3cc(C(F)(F)F)ccn3)C[C@@H]21 (some centres unmarked) . Its IC50 was 2000 to 5000 nM

Next:
Entry under test: O=C(NCc1ccc(Cl)cc1)[C@@H]1[C@@H]2CN(c3ncnc4ccc(F)cc34)C[C@@H]21 . Its IC50 was > 5000 nM

Entry under test: CCC(NC(=O)c1ccc(Cl)cc1)[C@H]1[C@@H]2C[C@@H](NC(=O)c3cccnc3C)C[C@@H]21 (some centres unmarked) . Its IC50 was > 5000 nM

Entry under test: CCC(NC(=O)c1ccc(Cl)cc1)[C@H]1[C@@H]2C[C@@H](n3ncc4cccc(F)c43)C[C@@H]21 (some centres unmarked) . Its IC50 was 500 to 2000 nM

====

Reported pIC50 values follow for various compounds
- Measured target: IDO1 (Homo sapiens)
- Construct: endogenous in cells
- Measurement notes: IDO1 cell-based assay (HeLa cells, IFNgamma-induced, N-formylkynurenine/L-tryptophan by RFMS)
- Stated conditions: 10 ng/mL IFNgamma, 24 hours
pIC50: −log10 of the molar value.

Consider the following illustrative entries.
Entry under test: CCC(NC(=O)c1ccc(Cl)cc1)[C@H]1[C@@H]2C[C@@H](n3cc(N4C(=O)c5ccccc5C4=O)nn3)C[C@@H]21 (some centres unmarked) . Its pIC50 was < 5.30

Entry under test: O=C(NCc1ccc(Cl)cc1)C1[C@H]2CC(Oc3ccnc4ccccc34)C[C@@H]12 (some centres unmarked) . Its pIC50 was < 5.30

Entry under test: CCC(NC(=O)c1ccc(Cl)cc1)[C@H]1[C@@H]2C[C@@H](n3cc(C4CN(C(C)=O)C4)nn3)C[C@@H]21 (some centres unmarked) . Its pIC50 was < 5.30

Entry under test: CC(C(=O)Nc1ccc(Cl)cc1)[C@H]1[C@@H]2C[C@@H](Oc3ccnc4ccc(F)cc34)C[C@@H]21 (some centres unmarked) . Its pIC50 was > 6.70

Entry under test: Cc1cccnc1O[C@@H]1C[C@@H]2[C@H](C1)[C@H]2C(C)NC(=O)c1ccc(Cl)cc1 (some centres unmarked) . Its pIC50 was > 6.70

Entry under test: C[C@@H](NC(=O)c1ccc(C#N)cc1)[C@H]1[C@@H]2C[C@@H](Oc3ncnc4ccc(F)cc34)C[C@@H]21 . Its pIC50 was > 6.70

Entry under test: CCC(NC(=O)c1ccc(C#N)cn1)[C@H]1[C@@H]2C[C@@H](n3ncc(=O)c4ccccc43)C[C@@H]21 (some centres unmarked) . Its pIC50 was 5.70 to 6.70

Entry under test: CCC(NC(=O)c1ccc(Cl)cc1)[C@H]1[C@@H]2C[C@@H](n3cnc(C4CC4)c3)C[C@@H]21 (some centres unmarked) . Its pIC50 was > 6.70

Entry under test: CCC(NC(=O)c1ccc(Cl)cc1)[C@H]1[C@@H]2C[C@@H](NC(=O)N3CCOCC3)C[C@@H]21 (some centres unmarked) . Its pIC50 was 5.70 to 6.70

Entry under test: CC(NC(=O)c1ccc(Cl)cc1)[C@H]1[C@@H]2C[C@@H](n3cnc4ccc(F)cc4c3=O)C[C@@H]21 (some centres unmarked) . Its pIC50 was > 6.70

Next:
Entry under test: C[C@H](NC(=O)c1ccc(C#N)cc1)[C@H]1[C@@H]2C[C@@H](Oc3ncnc4ccc(F)cc34)C[C@@H]21 . Its pIC50 was > 6.70

Entry under test: CCC(NC(=O)c1ccc(Cl)cc1)[C@H]1[C@@H]2C[C@@H](N3C(=O)Cc4cc(F)ccc43)C[C@@H]21 (some centres unmarked) . Its pIC50 was > 6.70

Entry under test: CC[C@@H](NC(=O)c1ccc(Cl)cc1)[C@H]1[C@@H]2C[C@@H](Oc3cnnc4ccccc34)C[C@@H]21 . Its pIC50 was > 6.70

Entry under test: CC[C@@H](NC(=O)c1ccc(Cl)cc1)[C@H]1[C@@H]2C[C@H](c3ccnc4ccc(F)cc34)C[C@@H]21 . Its pIC50 was > 6.70

====

- Measured target: mouse IDO1 (Mus musculus)
- Construct: The murine PANC02 pancreatic ductal adenocarcinoma cell line was routinely maintained in DMEM media; endogenous in cells; host or cells: PANC02 murine pancreatic ductal adenocarcinoma cells, induced with mouse IFNgamma
- Measurement notes: Mouse IDO1 cell-based assay (PANC02 cells, mouse IFNgamma-induced, N-formylkynurenine/L-tryptophan by RFMS)
- Stated conditions: 30 ng/mL mouse IFNgamma, 48 hours
pIC50: −log10 of the molar value.
Metric: pIC50

Entry under test: CCC(NC(=O)c1ccc(Cl)cc1)[C@H]1[C@@H]2C[C@@H](NC(=O)c3ncccc3Cl)C[C@@H]21 (stereo partly shown) [Compound 218] . Its pIC50 was 5.70 to 6.30

Entry under test: CCc1cn([C@@H]2C[C@@H]3[C@H](C2)[C@H]3C(CC)NC(=O)c2ccc(Cl)cc2)nn1 (stereo partly shown) [Compound 167] . Its pIC50 was > 6.30

Next:
Entry under test: CCC(NC(=O)c1ccc(Cl)cc1)[C@H]1[C@@H]2C[C@@H](n3cnc(-c4ccccc4)c3)C[C@@H]21 (stereo partly shown) [Compound 200] . Its pIC50 was 5.70 to 6.30

Entry under test: CCC(NC(=O)c1ccc(Cl)cc1)[C@H]1[C@@H]2C[C@@H](N3C(=O)c4ccccc4C3=O)C[C@@H]21 (stereo partly shown) [Compound 161] . Its pIC50 was 5.70 to 6.30

====

- Measured target: IDO1 (Homo sapiens, UniProt P14902)
- Construct: endogenous in cells
- Sequence (P14902 whole entry): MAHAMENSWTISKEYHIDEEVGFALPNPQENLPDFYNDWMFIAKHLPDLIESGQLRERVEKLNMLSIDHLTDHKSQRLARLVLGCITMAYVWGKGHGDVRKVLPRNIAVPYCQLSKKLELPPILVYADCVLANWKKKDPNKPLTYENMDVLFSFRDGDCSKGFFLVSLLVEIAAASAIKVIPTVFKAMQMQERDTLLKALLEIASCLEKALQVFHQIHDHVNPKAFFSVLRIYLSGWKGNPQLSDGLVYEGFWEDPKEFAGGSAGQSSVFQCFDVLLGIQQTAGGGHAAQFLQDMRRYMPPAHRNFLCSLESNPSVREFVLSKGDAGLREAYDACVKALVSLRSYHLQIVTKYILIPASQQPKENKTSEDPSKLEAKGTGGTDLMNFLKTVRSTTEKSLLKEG
- Measurement notes: IDO1 cell-based assay (HeLa cells, IFNgamma-induced, N-formylkynurenine/L-tryptophan by RFMS)
- Stated conditions: 10 ng/mL IFNgamma, 24 hours
pIC50: −log10 of the molar value.
Metric: pIC50

Consider the following illustrative entries.
Entry under test: CCC(NC(=O)c1ccc(Cl)cc1)[C@H]1[C@@H]2C[C@@H](NC(=O)c3ncc(F)cc3F)C[C@@H]21 (stereo partly shown) . Its pIC50 was > 6.70

Entry under test: CC[C@@H](NC(=O)c1cccc(C#N)c1)[C@H]1[C@@H]2C[C@@H](n3cnc4cc(F)c(F)cc43)C[C@@H]21 . Its pIC50 was > 6.70

Entry under test: COCC(NC(=O)c1ccc(Cl)cc1)[C@H]1[C@@H]2C[C@@H](n3cc(C4CC4)nn3)C[C@@H]21 (stereo partly shown) . Its pIC50 was > 6.70

Entry under test: CCC(NC(=O)c1ccc(Cl)cc1)[C@H]1[C@@H]2C[C@@H](Nc3ccc(C#N)cc3[N+](=O)[O-])C[C@@H]21 (stereo partly shown) . Its pIC50 was > 6.70

Entry under test: CCC(NC(=O)c1ccc(Cl)cc1)[C@H]1[C@@H]2C[C@@H](n3cc4cccc(F)c4n3)C[C@@H]21 (stereo partly shown) . Its pIC50 was > 6.70

Next:
Entry under test: CC[C@@H](NC(=O)N1CCC(F)(F)CC1)[C@H]1[C@@H]2C[C@@H](n3cnc4cc(F)c(F)cc43)C[C@@H]21 . Its pIC50 was > 6.70

Entry under test: CCC(NC(=O)c1ccc(Cl)cc1)[C@H]1[C@@H]2C[C@@H](Nc3c(F)cc(F)cc3[N+](=O)[O-])C[C@@H]21 (stereo partly shown) . Its pIC50 was > 6.70

Entry under test: CC[C@@H](NC(=O)c1cccc(F)c1)[C@H]1[C@@H]2C[C@@H](n3cnc4cc(F)c(F)cc43)C[C@@H]21 . Its pIC50 was > 6.70

Entry under test: CCC(NC(=O)c1ccc2c(c1)OC(F)(F)O2)C1C2CC(Oc3ncnc4ccc(F)cc34)CC21 (stereo not shown) . Its pIC50 was > 6.70

Entry under test: CC[C@@H](NC(=O)c1csc(C)n1)[C@H]1[C@@H]2C[C@@H](n3cnc4cc(F)c(F)cc43)C[C@@H]21 . Its pIC50 was 5.70 to 6.70

====

Reported pIC50 values follow for various compounds
- Measured target: mouse IDO1 (Mus musculus)
- Construct: The murine PANC02 pancreatic ductal adenocarcinoma cell line was routinely maintained in DMEM media; endogenous in cells
- Measurement notes: Mouse IDO1 cell-based assay (PANC02 cells, mouse IFNgamma-induced, N-formylkynurenine/L-tryptophan by RFMS)
- Stated conditions: 30 ng/mL mouse IFNgamma, 48 hours
pIC50: −log10 of the molar value.

Entry CCC(NC(=O)c1ccc(Cl)cc1)[C@H]1[C@@H]2C[C@@H](n3ncc4cc(F)ccc43)C[C@@H]21 (stereo partly shown) ; assay system mouse IDO1 (Mus musculus); pIC50 recorded at > 6.30

Entry CCC(NC(=O)c1ccc(Cl)cc1)[C@H]1[C@@H]2C[C@@H](C(C#N)c3ccccc3)C[C@@H]21 (stereo partly shown) ; assay system mouse IDO1 (Mus musculus); pIC50 recorded at > 6.30

Next:
Entry CCC(NC(=O)c1ccc(Cl)cc1)[C@H]1[C@@H]2C[C@H](n3cc(COC)nn3)C[C@@H]21 (stereo partly shown) ; assay system mouse IDO1 (Mus musculus); pIC50 recorded at > 6.30

Entry CCC(NC(=O)c1ccc(Cl)cc1)[C@H]1[C@@H]2C[C@@H](n3ncc(-c4ccccc4)n3)C[C@@H]21 (stereo partly shown) ; assay system mouse IDO1 (Mus musculus); pIC50 recorded at 5.70 to 6.30

Entry CCC(NC(=O)c1ccc(Cl)cc1)[C@H]1[C@@H]2C[C@@H](NC(=O)N(C)c3ccccn3)C[C@@H]21 (stereo partly shown) ; assay system mouse IDO1 (Mus musculus); pIC50 recorded at 5.70 to 6.30

Entry CCC(NC(=O)c1ccc(Cl)cc1)[C@H]1[C@@H]2C[C@@H](n3ccc4ncnc-4c3)C[C@@H]21 (stereo partly shown) ; assay system mouse IDO1 (Mus musculus); pIC50 recorded at 5.70 to 6.30

Entry CCC(NC(=O)c1ccc(Cl)cc1)[C@H]1[C@@H]2C[C@@H](n3cc(C4CN(C(=O)OC(C)(C)C)C4)nn3)C[C@@H]21 (stereo partly shown) ; assay system mouse IDO1 (Mus musculus); pIC50 recorded at < 5.30

Where these numbers come from: patent US11173145B2
